molecular target: RSV prefusion F (preF), DS-Cav1 (Respiratory Syncytial Virus, UniProt P03420 26-513); assay: BLI, IgG on anti-human IgG sensor, 100 nM antigen, 1:1 fit
observation-type: Kd (nM)
Numbers only here, please. The scale is nM.

INSERT INTO assay_data (binder, value_reported) VALUES
  ('ADI-41486 (antibody, V domains shown, also called Ab 767; Antibody Number 767) VH: QVQLQQWGAGLLKPSETLSLTCSVYGGSFSGYYWSWIRQPPGKGLEWIGEINHSGSTNYNPSLKSRITISVDTSKNQFSLKLNSVTAADTAVYYCARGDYAFVTFDYWGQGTLVTVSS VL: QSVLTQPASVSGSPGQSITISCTGTSSDVGGYNYVSWYQQHPGKAPKLMIYEVSNRPSGVSNRFSGSKSGNTASLTISGLQAEDEADYYCSSYTSSSTPVFGGGTKLTVL', 2.86);

Lookup: Reported Kd, binder ADI-41523 (antibody, V domains shown) VH: QVQLVQSGAEVKKPGESLRISCKGSGDTFSNYWIGWVRQMPGKGLEWMGIIYPGDSDTRYSPSFQGQVTFSADKSISTAYLQWSSLKASDTAMYYCVRQVGGVVVTDTDNYYYGMDVWGQGTTVTVSS VL: DIRLTQSPSSLSASVGDRVTITCRASQSIRSYLNWYQQKPGKAPKLLIYSASSLQSGVPSRFSGSGSGTDFTLTISSLQPEDFATYYCQQSHSTPLTFGPGTKVDIK : ____
Found: 2.91

Lookup: Quick one: Kd for ADI-41524 (antibody, V domains shown) VH: EVQLVESGGGLVQPGRSLRLSCTGSGFTFGDYAISWFRQAPGKGLEWVGFIRSKPYGGTTEYAASVKGTFTISRDDSKSIAYLQMNSLKTGDTAVYFCTRGIWGITMIVPWSDPWGQGTLVTVSS VL: DIVMTQTPLSLPVTPGEPASISCRSSQSLLHSNGFNYLAWYLQKPGQSPQLLIYLNSNRASGVPDRFSGSGSGTDFTLKISRVEAEDVGVYYCMQALQTPLTFGPGTKLEIK ?
Found: 3.18

Lookup: Sample ADI-41531 (antibody, V domains shown, also called Ab 803; Antibody Number 803) VH: EVQLLESGGDLVQPGGSLRLSCAASGFTFFSYALNWVRRTPGKGLEWVSGISGSGGSTYYADSVKGRFTISRDNSKSTLYLQMNSLKVDDTAVYFCAKDFQHDYGDPYRSYYFDHWGQGTLVTVSS VL: DIQLTQSPSSLAASVGDRVTITCQASRDIRKSLNWYQVKPGKAPKLLISDASYLETGVPPRFSGSGFGTHFTFTISSLQPEDIATYYCQQYDNLPPPTFGGGTKVDIK — what was its Kd?
Found: 2.08

Lookup: Endpoint output: Kd of ADI-41455 (antibody, V domains shown) VH: QVQLQESGPGLVKPSQTLSLTCSVSEGSVISGDYYWSWIRQSPGKGLEWLGYIHYSGSTYYNPSLKSRVTISVDTSKKQFSLKLSSVTAADTAVYYCARDLGCIGGVCSAYGLEHNYYFGMDVWGQGTTVTVSS VL: EIVLTQSPATLSLSPGERATLSCRASQSVSSYLAWYQQKPGQAPRLLIYTASNRATGIPARFSGSGSGTDFTLTISSLEPEDFAVYYCQQRSSWPPYTFGQGTKLEIK . Value?
Found: 1.53
